Cited source: ChEMBL document CHEMBL5291721

Form: system (Androgen receptor (Rattus norvegicus)), quantity (AC50), values below. Also: assay procedure not described here.

>  <compound>
NS(=O)(=O)Cc1noc2ccccc12 [ZONISAMIDE]

>  <AC50>
> 10 µM

$$$$
>  <compound>
CC(C)(C)c1cc(C(C)(C)C)c(NC(=O)c2c[nH]c3ccccc3c2=O)cc1O

>  <AC50>
> 30 µM

$$$$
>  <compound>
COC(=O)C1=C(C)NC(C)=C(C(=O)OC(C)(C)CN(C)CCC(c2ccccc2)c2ccccc2)C1c1cccc([N+](=O)[O-])c1 (stereo not given)

>  <AC50>
> 30 µM

$$$$

Give AC50 for each of the items listed below.
1. CO[C@H]1C[C@@H]2CC[C@@H](C)[C@@](O)(O2)C(=O)C(=O)N2CCCC[C@H]2C(=O)O[C@H]([C@H](C)C[C@@H]2CC[C@@H](O)[C@H](OC)C2)CC(=O)[C@H](C)/C=C(\C)[C@@H](O)[C@@H](OC)C(=O)[C@H](C)C[C@H](C)/C=C/C=C/C=C/1C
2. O=C(O)C[C@H](O)C[C@H](O)/C=C/c1c(C2CC2)nc2ccccc2c1-c1ccc(F)cc1
3. COC(=O)[C@H]1[C@H]2C[C@@H]3c4[nH]c5cc(OC)ccc5c4CCN3C[C@H]2C[C@@H](OC(=O)/C=C/c2cc(OC)c(OC)c(OC)c2)[C@@H]1OC
4. NCC[C@H](O)C(=O)N[C@@H]1C[C@H](N)[C@@H](O[C@H]2O[C@H](CN)[C@@H](O)[C@H](O)[C@H]2O)[C@H](O)[C@H]1O[C@H]1O[C@H](CO)[C@@H](O)[C@H](N)[C@H]1O
5. Clc1ccc2nsnc2c1NC1=NCCN1
6. CC(C)Cn1cnc2c(N)nc3ccccc3c21
7. CN1C(C(=O)Nc2ccccn2)=C(O)c2sc(Cl)cc2S1(=O)=O

Resp:
1. 11.9 µM
2. > 10 µM
3. > 10 µM
4. > 10 µM
5. > 30 µM
6. > 10 µM
7. > 30 µM

Provide the reported AC50 of each entry below, same order.
1. C[C@]12CCC(=O)C=C1CC[C@@H]1[C@@H]2[C@@H](O)C[C@@]2(C)[C@H]1CC[C@]2(O)C(=O)CO [HYDROCORTISONE]
2. CN1CCN(CC/C=C2/c3ccccc3Sc3ccc(S(=O)(=O)N(C)C)cc32)CC1

Resp:
1. > 30 µM
2. > 30 µM

====

Target: Alpha-2B adrenergic receptor (Homo sapiens, UniProt P18089); also: assay procedure not described here
Sequence (P18089 whole entry): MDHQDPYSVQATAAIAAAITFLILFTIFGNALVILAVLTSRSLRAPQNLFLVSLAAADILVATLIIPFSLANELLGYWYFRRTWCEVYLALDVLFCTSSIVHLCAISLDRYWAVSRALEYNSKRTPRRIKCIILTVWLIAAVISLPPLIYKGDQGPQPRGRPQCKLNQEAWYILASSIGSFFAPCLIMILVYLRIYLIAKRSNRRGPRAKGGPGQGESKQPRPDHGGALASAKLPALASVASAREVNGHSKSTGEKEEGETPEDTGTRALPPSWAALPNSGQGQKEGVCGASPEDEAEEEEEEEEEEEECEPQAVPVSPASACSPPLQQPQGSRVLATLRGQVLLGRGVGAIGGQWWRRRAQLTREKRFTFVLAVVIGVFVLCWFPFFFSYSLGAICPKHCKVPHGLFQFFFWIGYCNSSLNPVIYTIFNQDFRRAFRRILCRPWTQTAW
readout: AC50

>  <molecule>
CN1C(=O)C(O)N=C(c2ccccc2)c2cc(Cl)ccc21 (centres undefined)

>  <AC50>
> 10 µM

$$$$
>  <molecule>
O=C(O[C@H]1C[C@H]2CC[C@@H](C1)[N+]21CCCC1)C(O)(c1ccccc1)c1ccccc1

>  <AC50>
> 30 µM

$$$$
>  <molecule>
CCOc1ccc(Cc2cc([C@@H]3O[C@H](CO)[C@@H](O)[C@H](O)[C@H]3O)ccc2Cl)cc1

>  <AC50>
> 10 µM

$$$$
>  <molecule>
CN(C)CCC=C1c2ccccc2C(C)(C)c2ccccc21

>  <AC50>
11 µM

$$$$
>  <molecule>
C[C@H]1CNCCc2ccc(Cl)cc21

>  <AC50>
5.7 µM

$$$$
>  <molecule>
C[C@H](CSC(=O)c1ccccc1)C(=O)N1C[C@@H](Sc2ccccc2)C[C@H]1C(=O)O

>  <AC50>
> 10 µM

$$$$
>  <molecule>
O=C(O)CCCCCCNC1c2ccccc2CCc2ccccc21

>  <AC50>
> 30 µM

$$$$
>  <molecule>
NC(=O)OCC(COC(N)=O)c1ccccc1 [FELBAMATE]

>  <AC50>
> 10 µM

$$$$

Moving on to the next molecule.
Req: Determine from records and report AC50 for `CNC(=O)c1ccccc1Sc1ccc2c(/C=C/c3ccccn3)n[nH]c2c1`
Resp: > 30 µM
